The origin of these recorded values is the supplement of paper PMC12636428.

Test system: Saccharomyces cerevisiae
Test: transcriptional activation domain activity (GFP:mCherry ratio, weighted mean of sorted bins, harmonized to initial dataset scale) (arbitrary fluorescence ratio units); higher = stronger transcriptional activation
Details: beta-estradiol 1 µM; induction time 4 h
Test Readout: transcriptional activation domain activity

- MTISSPYCLFRCVAYGPWQTLSVLFCFFFFLLLFLSPSLHHLFYFLSLDFFSY: 55500
- MGKGGYGEQRGGGRGGFRGGRGGGRGGFGGGGFNQGPPSEVVVVGAFVSACEG: 56800
- MALASPVFFFFYLYFIILLFGVGIYLFTFVMSYHTMVMQIIHVSCYNHRYIPV: 47200
- AHACIVLVVCEIDKTLGHSKHLLMIWLMRLLLLILNIMTIVGLFWSFLKCLDV: 70900

* * *

System: Saccharomyces cerevisiae
Assay: transcriptional activation domain activity (GFP:mCherry ratio, weighted mean of sorted bins, harmonized to initial dataset scale) (arbitrary fluorescence ratio units); higher = stronger transcriptional activation
Conditions: beta-estradiol 1 µM; induction time 4 h
Test Readout: transcriptional activation domain activity

• MAGRKRAAAEDTTEKRETRSSKVAKTEGTKTAGKAAKGTARLKARLIISLTIL = 34500
• QANGVEKAVENLSISSPHPDTHAQSAPEQNGPKKKPNRAKARLARRAAEYEAL = 14100
• GAGAGGKVGGGAGAGAGAGAGAGHLGGGAEGGGKIGAGAGGKVGGEIGAGGKI = 25000
• MQVISYIFFCHVKYLFFVYSLHVVSNTNLSSYMLFNWLYLILLRLFVYIIYFI = 71300
• HPLSQRYVLIMSITRLCIPLYFYGYEDNFIGHETTHWIWILVIYVSLQVLILF = 40200
• MGMAYGVCCMYFLEPWWVGAISLVRFLGVGVFTLCMYFPSIMIFYFLLFFIIF = 51000
• SASSNTRPREPSPEPYRKPREESRDRKRHRSRDRRRDRSPGGKKSRAREGRRD = 35900
• VKKKGGSGGIDAGDIWGCNRRGSNFVEVRSMLAKEGGRLLVNVLRDMIDGTVR = 65900
• FKCCAVAFPIVCFATPYTALIQRPLVQQAAMFGIMIVKCFAVIFAFPCSIILL = 81600
• HSPEAANAALRAMDGHSLEGHALKIQGSHRGADAAEERRKEDAAKKATGTKIL = 44000
• MLQLWRLCVDNLLMAFSNYFPLVLPHATRFYLFYFWLILRGLQLTRLFCVCFM = 85300
• IRDRFNHGPCKVYILFMNCTYLPMIPGLFRIIEILRYYLRLRWLRCCSAAGPD = 60300
• RWQYATLFFSGVSGGATLALSLCVITHPSLLTRIVVVCIFLTLISAFTILPIS = 38500
• SEGLLCPLPRYPPHPIVSQLMQTSALRSLQTIVQLQRAHFMTLLFWNILLAFY = 57100
• ALVADPEYQRELDYMANGKQLLVPLRYLLNLVWRYCHGAQTICFSFFLLHGRN = 64200
• RKTKFPILLSGDGYIHFGFLYAVIPNLNIMAMSYVAVINNVRVVAYLCLWMSL = 50800
• KKKKRKKKTPSKGESEEKGDDEDDEDEKKQTPKANTGAKKTKATGKTDREKKE = 51500
• MAFGAVLGLFICDADKVVRADGSRIILMKHPSWKTEIVGLWQTLIAEPWIIML = 51400
• MTGFSFLLMTFFFFLFFLFFFFISLFLLFFPLFSSHSLFFRLLAICSGLWCSG = 60000
• VKRVAFGCLSTILALYLVHKYTYEHPFILSDNRHYSFYVWKKIYRRHWMVRYC = 61000
